Hello, the source for this data is patent US20210371530A1, in case you need it.

Record form. Attribute: KD (REF) / KD. Fill in for each entry.
Target: T1, polyhistidine-tagged human PD-1 (hPD1-His, 98AFK) (human, UniProt Q15116 25-167, limits assumed)
T1 construct: Lot 98AFK; also called human PD1-His; Human PD-1-His; not shown: polyhistidine tag
T1 sequence (Q15116 25-167 limits assumed): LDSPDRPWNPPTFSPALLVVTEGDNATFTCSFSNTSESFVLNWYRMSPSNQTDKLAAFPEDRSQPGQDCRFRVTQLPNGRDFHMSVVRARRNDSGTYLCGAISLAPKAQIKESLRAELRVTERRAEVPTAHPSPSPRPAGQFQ
Experiment: SPR capture format; reference Mouse 08A
Numbers only, in ratio.

>  <binder>
Humanized 08A IgG4 (antibody, V domains shown, IgG4 S228P / kappa, no CDRH2 corrections; also called 73AGG; 08A/HuPD1A-11 S228P IgG4 / Kappa) VH: EVQLVQSGAEVKKPGASVKVSCKASGYTFTSYYLYWVRQAPGQGLEWIGGVNPSNGGTNFSEKFKSRVTLTVDTSISTAYMELSRLRSDDTAVYYCTRRDSNYDGGFDYWGQGTTVTVSS VL: DIVMTQTPLSLSVTPGQPASISCRASKSVSTSGFSYLHWYLQKPGQPPQLLIFLASNLESGVPDRFSGSGSGTDFTLKISRVEAEDVGVYYCQHSWELPLTFGQGTKLEIKR

>  <KD (REF) / KD (ratio)>
1.7

$$$$
>  <binder>
Humanized 08A IgG4 Fab 100 S61N G56A (antibody, V domains shown, also called 25AVE) VH: EVQLVQSGAEVKKPGASVKVSCKASGYTFTSYYLYWVRQAPGQGLEWIGGVNPSNAGTNFNEKFKSRVTLTVDTSISTAYMELSRLRSDDTAVYYCTRRLSHYDGGFDYWGQGTTVTVSS VL: DIVMTQTPLSLSVTPGQPASISCRASKSVSTSGFSYLHWYLQKPGQPPQLLIFLSKYRSSGVPDRFSGSGSGTDFTLKISRVEAEDVGVYYCSQAYHLPLTFGQGTKLEIKR

>  <KD (REF) / KD (ratio)>
5.7

$$$$

Let's switch to this binder now.
**Query** Given Mouse 09A (antibody, mouse IgG1, kappa, V domains shown, Mouse IgG1/kappa; also called 03AFN; Mouse x [PD-1_H] mAb (clone 09A) IgG1 / Kappa) VH: QVQLQQPGAELVKPGTSVKLSCKASGYTFTNYYMYWVKQRPGQGLEWIGGINPSNGGTNFNEKFKNKATLTVDSSSSTTYMQLSSLTSEDSAVYYCTRRDYRFDMGFDYWGQGTTLTVSS VL: DIVLTQSPASLAVSLGQRAAISCRASKGVSTSGYSYLHWYQQKPGQSPKLLIYLASYLESGVPARFSGSGSGTDFTLNIHPVEEEDAATYYCQHSRDLPLTFGTGTKLELKR , state its recorded KD (REF) / KD.
**Result** 0.5
